// provenance: patent US20250027068

# study-system: pooled human IgG (human IgG1, 2, 3 and 4)
quantity-kind: Enzyme Activity Endpoint Assay: scIgG

These recorded examples may help you get a feel for the data.
INSERT INTO results (protein, obs_value) VALUES
  ('PRT-528 (protein) MANQEIRYSEETPKTITSVWTKGVTPPTDFIQNEDVLHAPYIANQGWYDITKTFNGKDDLLCGAATAGNMLHWWFDQNKEEIENYLKKHPEKQKINFNGEQMFDVKEAIDTKDSQTDSALFEYFKDKAFPNLSTKHLGVMPDLVLDMFINGYYLSLGKHGPTPVKRGTKDPRGGIFDAVFTRGDQSKLLTARHDFKEKTLNEISDLIKQELTEGKALALSHTYANVRINHVINLWGADFNSEGNLEAIYVTDSDSNASIGMKKYYVGVNAAGKVAISAKEIEGDNIGAQVLGLFTLSTGQDIWEQTNLEHHHHHH', '691 ng/µL'),
  ('PRT-272 (protein) MVTSVWTKGVTPPTDFIYGEDVLHAPYKAGQGWYDITKLFNGKDDLLCGAATAGNMLHWWFDQNKEQIENYLKKHPEKQKINFNGEQMFDVKEAIDTKDSQLDSKLFEYFLEKAFPYLSTKHLGVFPDHVIDMFINGYRLSLTNHGPTPVKRGSKDPRGGIFDAVFTRGDQSKLLTNRHDLKNKTLKEISDLIKQELTEGKALGISHTYANVRINHVINLWGADFDAEGNLEAIAVTDSDSNASIGMKKYFVGVNSSGKVAISAKEIEEDNIGAQVLGLFTLSTGQDIWNQTN', '0 ng/µL'),
  ('PRT-407 (protein) MVTSVWTKGVTPPADFTQGEDVFHAPYVANQGWYDITKTFNGKDDLLCGAATAGNMLHWWFDQNKEYIEAYLKKHPEKQKIIFGDQELLDVRKAINTKGSQKNSELFNYFRDKAFPNLSARRLGVMPDLVLDMFINGYYLNVTKTQTTDVNRTYQEKDKRGGIFDAVFTRGDQSKLLTSRHDFKEKGLKEISDLIKQELTEGKALGLSHTYANVRINHVINLWGADFDSDGNLKAIYVTDSDSNASIGMKKYFVGVNSAGKVAISAKEIKEDNIGAQVLGLFTLSTGQDIWNQTN', '396 ng/µL');

Lab note: next protein to report on.
Give the reported Enzyme Activity Endpoint Assay: scIgG for this protein. PRT-600 (protein) MANQEIRYSEETPSTITSVWTKGVTPPTDFIQNEDVLHAPYIANQGWYDITKTFNGKDDLLCGAATAGNMLHWWFDQNKEQIENYLKKHPEKQKINFNGEQMFDVKEAIDTKDSQTDSALFEYFKDKAFPYLSTKHLGVFPDHVIDMFINGYRLSLTNHGPTPVKRGTKDPRGGIFDAVFTRGDQSKLLTSRHDFKEKTLNEISDLIKQELTEGKALGLSHTYANVRINHVINLWGADFNAEGNLEAIYVTDSDSNASIGMKKYYVGVNSAGKVAISAKEIEGDNIGAQVLGLFTLSTGQDSWNQTNLEHHHHHH 0 ng/µL
